# key: entry, value: log10(IC50)
# Experimental target: Gβγ (protein interaction site of Gβ) (Rattus norvegicus, UniProt P54311)
# Construct: made in house; host or cells: Sf9 insect cells (baculovirus), co-expressed with BirA and (His)6-Gαi1
# Assay text: Phage ELISA: small molecules competing with SIGK-phage binding to immobilized biotinylated Gβγ
# Test conditions: read-out: IC50
Quantity: log10(IC50) (log10 of the value in µM)

{"columns": ["Compound", "log10(IC50)"],
 "data": [
  ["Nc1ccc(-c2ccc(Nc3cc(S(=O)(=O)O)c(N)c4c3C(=O)c3ccccc3C4=O)cc2)c(S(=O)(=O)O)c1", 1.83],
  ["O=C1c2ccccc2C(=O)c2c(Nc3cc4c5c(ccc6c7ccc8c9c(cc(Nc%10cccc%11c%10C(=O)c%10ccccc%10C%11=O)c(c3c56)c97)-c3ccccc3C8=O)C(=O)c3ccccc3-4)cccc21", 1.20],
  ["Ic1ccc2c(c1)N(c1ccccc1)c1cc(Nc3ccc4nc5ccc(I)cc5[n+](-c5ccccc5)c4c3)ccc1N2", 0.30],
  ["N[C@H]1CCc2cc(O)c(O)c(O)c2-c2ccc(O)c(=O)cc21", -1.00],
  ["CCc1cc2c(c3ccc(C(=O)CBr)cc13)CCCC2", -1.00],
  ["Nc1c(S(=O)(=O)O)cc(Nc2cccc(S(N)(=O)=O)c2)c2c1C(=O)c1ccccc1C2=O", 1.63]
]}

###

# key: entry, value: % of Wild-Type Signal, Met101
# Experimental target: Gβ1γ2 Met101Ala (Rattus norvegicus, UniProt P54311, M101A)
# Construct: made in house; host or cells: Sf9 insect cells (baculovirus)
# Assay text: Phage ELISA, b-βγ mutant Met101Ala
# Assay type: binding
# Test conditions: alanine-substituted Met101, C-Terminal Interface; mean ± SD
Quantity: % of Wild-Type Signal, Met101 (%)

{"columns": ["Sequence string", "Quantity", "U", "Reported"],
 "data": [
  ["WCPPKLEQWYDGCA [C2]", "% of Wild-Type Signal, Met101", "%", 157.1],
  ["WCPPKAMTQLGIKAC [C14]", "% of Wild-Type Signal, Met101", "%", 1.1],
  ["LCSKAYLLLGQTC [2F]", "% of Wild-Type Signal, Met101", "%", 6.0],
  ["SCKRTKAQILLAPCT [C1]", "% of Wild-Type Signal, Met101", "%", 70.5],
  ["SIGKALFILGYPDYD [3.14]", "% of Wild-Type Signal, Met101", "%", 26.8],
  ["SCEKRYGIEFCT [C4]", "% of Wild-Type Signal, Met101", "%", 61.2],
  ["SCGHGLKVQSTIGACA [3C]", "% of Wild-Type Signal, Met101", "%", "−4.2"],
  ["SCEKRLGVRSCT [C5]", "% of Wild-Type Signal, Met101", "%", 47.8]
]}

###

# key: entry, value: % of Wild-Type Signal, Tyr59
# Experimental target: Gβ1γ2 Tyr59Ala (Rattus norvegicus, UniProt P54311, Y59A)
# Construct: made in house; host or cells: Sf9 insect cells (baculovirus)
# Assay text: Phage ELISA, b-βγ mutant Tyr59Ala
# Format: binding
# Test conditions: alanine-substituted Tyr59, C-Terminal Interface; mean ± SD

{"columns": ["Sequence string", "% of Wild-Type Signal, Tyr59 (%)"],
 "data": [
  ["SCEKRLGVRSCT [C5]", 73.8],
  ["SCKRTKAQILLAPCT [C1]", 0.3],
  ["WCPPKLEQWYDGCA [C2]", "−1.7"],
  ["SIGKALFILGYPDYD [3.14]", 24.7],
  ["SCGHGLKVQSTIGACA [3C]", 8.5],
  ["SCEKRYGIEFCT [C4]", 7.6],
  ["WCPPKAMTQLGIKAC [C14]", 3.6],
  ["LCSKAYLLLGQTC [2F]", "−2.0"]
]}
